The values you see were collected from PubChem BioAssay (NCI).

# Test system: HS 578T breast
# assayRemarks: NCI-60 one-dose screen, 48 h (100 = growth as untreated, 0 = no growth, -100 = all killed)
# measurementContext: 10 µM unless noted
Compounds without any hit were thinned out: in the full panel of roughly 83,000, 20% have a hit.
This section presents compounds with their documented growth values.
Give the value, in units of %, as a plain number.

Would you please look over these solved cases?
[[record]]
compound = "Cc1nn(-c2ccccc2)c2c1C(c1ccc([N+](=O)[O-])cc1)C(C#N)=C(N)O2 (stereo not drawn)"
recordedmetric = "growth"
measurementunit = "%"
observedresult = 103

[[record]]
compound = "c1ccc([P+](CCCc2n(Cc3ccc4ccccc4c3)c3ccccc3[n+]2Cc2ccc3ccccc3c2)(c2ccccc2)c2ccccc2)cc1"
recordedmetric = "growth"
measurementunit = "%"
observedresult = 68.6

[[record]]
compound = "CCCCS(=O)(=O)Oc1ccc(-c2nc(C)c(C(=O)OCC)s2)cc1C=O"
recordedmetric = "growth"
measurementunit = "%"
observedresult = 63.6

[[record]]
compound = "COc1cc(/C=C2\\C=C(c3ccccc3)N(CCc3ccccc3)C2=O)cc(OC)c1OC"
recordedmetric = "growth"
measurementunit = "%"
observedresult = 23.2

[[record]]
compound = "CCC(=O)OC1=C(C)SC2=NC(c3ccc(Cl)c(Cl)c3)=CC(c3cc(OC)c(OC)c(OC)c3)N21 (stereo not drawn)"
recordedmetric = "growth"
measurementunit = "%"
observedresult = 101


Using the record for C=C1C(=O)O[C@H]2[C@H]1CC/C(C(=O)NCCCCCCCCNC(=O)/C1=C/CC[C@@]3(C)O[C@H]3[C@H]3OC(=O)C(=C)[C@@H]3CC1)=C\CC[C@@]1(C)O[C@@H]21 , report its growth. 90.5

Using the record for CNC(=O)c1c(NC(=O)c2ccc(C(C)(C)C)cc2)sc2c1CCC(=O)C2 , report its growth. 24.2

Using the record for O=c1oc2ccc(Cl)cc2cc1-c1cs/c(=N/N=C\c2ccc(Cl)cc2)n1/N=C/c1ccc(Cl)cc1 , report its growth. 101

* * *

# Test system: SK-MEL-2 melanoma
# assayRemarks: NCI-60 one-dose screen, 48 h (100 = growth as untreated, 0 = no growth, -100 = all killed)
# measurementContext: 10 µM unless noted
The panel holds about 83,000 compounds, 20% with a hit somewhere; the sample as a whole holds those more often.
This section presents molecules with their documented growth values.
Give the value, in units of %, as a plain number.

Would you please look over these solved cases?
[[record]]
entrysmiles = "COc1ccc(/C=C2\\COc3ccc(O)cc3C2=O)cc1OC"
recordedmetric = "growth"
measurementunit = "%"
observedresult = 97.1

[[record]]
entrysmiles = "Cc1nc(C)c(-c2nn3c(-c4cccc(F)c4)nnc3s2)s1"
recordedmetric = "growth"
measurementunit = "%"
observedresult = 102

[[record]]
entrysmiles = "CCn1c(Sc2nnc(NC(C)=O)s2)nc2c1c(=O)n(C)c(=O)n2C"
recordedmetric = "growth"
measurementunit = "%"
observedresult = 103

[[record]]
entrysmiles = "CCCCCCNCc1cc(C(C)(C)C)cc(CNCCCCCC)c1O"
recordedmetric = "growth"
measurementunit = "%"
observedresult = -7.07


With those in mind, consider the next molecule.
Using the record for CC(=O)NCC(=O)Nc1ccc(-c2nnc3ccccn23)nc1.CC(=O)NCC(=O)Nc1ccc(-c2nnc3ccccn23)nc1.[Pt+2] , report its growth. 91.4

* * *

# Test system: UO-31 renal
# assayRemarks: NCI-60 one-dose screen, 48 h (100 = growth as untreated, 0 = no growth, -100 = all killed)
# measurementContext: 10 µM unless noted
This is part of a sample that, as a whole, favours compounds with a hit. Of some 83,000 tested, about 20% had one in any assay.
This section presents molecules with their documented growth values.
Give the value, in units of %, as a plain number.

Using the record for CSc1nc2sc3cc(Cl)ccc3n2c(=N)c1C#N , report its growth. 75.2

Using the record for C=C1C(=O)O[C@H]2[C@H]1CC/C(COC(=O)/C=C\C(=O)NCc1ccc(Cn3c(=O)sn(CCCI)c3=O)cc1)=C\CC[C@@]1(C)O[C@@H]21 , report its growth. -100

Using the record for COc1ccccc1C(=O)NC(=S)Nc1ccc(-c2nc3ccccc3[nH]2)cc1 , report its growth. 28.5

Using the record for O=C(NCCN1CCC(O)CC1)c1cc2c(o1)C(=O)c1ccccc1C2=O , report its growth. -98.9

Using the record for O=c1oc2ccc(Cl)cc2cc1-c1cs/c(=N/N=C\c2ccc(Cl)cc2)n1/N=C/c1ccc(Cl)cc1 , report its growth. 90.1

Using the record for CCCCCCCCCCCCCCCCCC1=NCCN1C(=O)OCCO , report its growth. 29.5

Using the record for N[C@@H]1CCC[C@H]1NCCCCN1C(=O)c2cccc3cccc(c23)C1=O , report its growth. 56.2

Using the record for COc1cc(NC(=O)c2cccc(-c3cc(=O)c4c(O)c(OC)c(OC)cc4o3)c2)cc(OC)c1OC , report its growth. 34.3

Using the record for CCO/C=N/C1=C(C#N)C(c2ccc(OC)cc2)c2c(c3ccccc3n(C)c2=O)O1 (centres undefined) , report its growth. 72.8

* * *

# Test system: OVCAR-8 ovarian
# assayRemarks: NCI-60 one-dose screen, 48 h (100 = growth as untreated, 0 = no growth, -100 = all killed)
# measurementContext: 10 µM unless noted
# Experimental: Growth inhibition of the OVCAR-8 human tumor cell line is measured as a screen for anti-cancer activity. Cells are grown in 96 well plates and exposed to the test compound for 48 hours. Compounds are tested at a single concentration, which is 10^-5 M for most compounds. The reported endpoint is percent growth (GI% or GIPRCNT), where numbers from 0 - 100% represent growth inhibition, and numbers from -100% - 0 represent cell death. For example, a value of 40 represents 60% growth inhibition. […]
About 83,000 compounds went through this panel and 20% of them were active in at least one assay; those are over-represented in the sample as a whole.
Response field label takes label 1 when growth is strictly below 60% and label 0 in all other cases.

Use the examples below as a reference point.
[[record]]
molecule = "O=S(=O)(NCCNc1cc(-c2c(-c3cccc(O)c3)nc3sccn23)ccn1)c1ccc(Cl)cc1"
assignedlabel = "label 1"

[[record]]
molecule = "Cc1c2c(cn1Cc1ccccc1)CCc1cn[nH]c1-2"
assignedlabel = "label 0"

[[record]]
molecule = "COc1ccc2cc(-c3ccc(C(=O)NN)c(C)n3)ccc2c1"
assignedlabel = "label 0"

[[record]]
molecule = "CS(=O)(=O)c1ccc(-c2[nH]c3ccc(F)cc3c2/C=N/NC(N)=S)cc1"
assignedlabel = "label 1"

[[record]]
molecule = "CC(C)n1nc(C#Cc2cccc(NC(=O)c3cccc(C(F)(F)F)c3)c2)c2c(N)ncnc21"
assignedlabel = "label 1"


Quick check: growth of COc1ccc(/C=C2\COc3ccc(O)cc3C2=O)c(OC)c1 under 60%? label 0

Quick check: growth of CCOC(=O)c1c(C)nc2c(c1N)/C(=C/c1ccc(OC)cc1)C(=O)N2Cc1ccc(F)cc1 under 60%? label 1

Quick check: growth of Cc1nn(-c2ccccc2)c2c1C(c1ccc([N+](=O)[O-])cc1)C(C#N)=C(N)O2 (stereo unspecified) under 60%? label 0

* * *

# System: NCI-H522 lung
# assayRemarks: NCI-60 one-dose screen, 48 h (100 = growth as untreated, 0 = no growth, -100 = all killed)
# measurementContext: 10 µM unless noted
The panel holds about 83,000 compounds, 20% with a hit somewhere; the sample as a whole holds those more often.
recordedMetric: growth (%)
Give the value, in units of %, as a plain number.

Would you please look over these solved cases?
[[record]]
compound = "C=CCO[C@H]1CO[C@H]2[C@@H]1OC[C@@H]2Oc1ccc(Nc2ccnc(Nc3ccc(O[C@H]4CO[C@H]5[C@@H]4OC[C@@H]5OCC=C)c(Cl)c3)n2)cc1Cl"
recordedmetric = "growth"
observedresult = -29.9

[[record]]
compound = "CCOC(=O)c1c2c(c(C)n1C)-c1nn(Cc3ccc(OC)cc3)cc1CC2"
recordedmetric = "growth"
observedresult = 90.7

[[record]]
compound = "O=[N+]([O-])c1ccc(-c2cc3c(Nc4ccc(Cl)c(C(F)(F)F)c4)ncnc3s2)cc1"
recordedmetric = "growth"
observedresult = -1.24

[[record]]
compound = "CCCCC1COc2cccc3c(SCC(=O)N(C)c4cccc(Cl)c4)cc[n+]1c23 (stereo not drawn)"
recordedmetric = "growth"
observedresult = 96.9


Using the record for O=C1c2cccc3c(-c4ccc(-c5nc6c7ccccc7c7ccccc7c6[nH]5)cc4)ccc(c23)C(=O)N1CCN1CCNCC1 , report its growth. 91.8

Using the record for CCCCN(CCCC)CCCn1c(=O)c2sc3ncccc3c2n2nnc(-c3ccccc3)c12 , report its growth. 89.5

Using the record for O=C(Nc1ccc(N2CCCCC2)c(Cl)c1)c1ccc(Br)o1 , report its growth. 87.2

Using the record for COc1cc2c(cc1OC)-c1ccc3cc4c(cc3c1N(CCN(C)C)C2)OCO4 , report its growth. -44.9

Using the record for COc1ccc(Oc2nc(Nc3ccc(N4CCCCC4)nc3)ncc2NC(=O)c2cc(OC)cc(OC)c2)cc1 , report its growth. 26.6

Using the record for COC(=O)/C(=C\c1ccc(OC)cc1)C(=O)N1c2ccccc2Sc2ccccc21 , report its growth. 2.63

Using the record for N#Cc1c(NC(=O)c2cccc(C(F)(F)F)c2)sc2c1CCC(=O)C2 , report its growth. -15.2

Using the record for COc1ccc(C2CC(c3ccc4ccccc4c3)=NN2c2nc(O)c(C3=c4cc(Cl)ccc4=NC3=O)s2)cc1 (stereo not drawn) , report its growth. -82

Using the record for Nc1ccc2c(S(=O)(=O)O)ccc(S(=O)(=O)O)c2c1 , report its growth. 85

Using the record for O=C1NN(C(=O)c2ccc(O)cc2)C(c2ccccc2)=N/C1=C\c1cn(-c2ccccc2)nc1-c1ccccc1 , report its growth. 85

Using the record for CCCCCCCCN(CCCCCCCC)C(=N)c1ccnc2ccccc12 , report its growth. -74.7

Using the record for COC(=O)[C@]12CC[C@@H](C)[C@H](C)[C@@H]1C1=CC[C@@H]3[C@@]4(C)C(C=O)=C[C@@](C)(CO)C4=CC[C@@]3(C)[C@]1(C)CC2 , report its growth. 28.1

Using the record for CN1CCN(C(=O)[C@@]2(C)CC[C@]3(C)CC[C@]4(C)C(=CC[C@@H]5[C@@]6(C)C/C(=C/c7ccncc7)C(=O)C(C)(C)[C@@H]6CC[C@]54C)[C@@H]3C2)CC1 , report its growth. 69

Using the record for CN1CCC(=C2c3ccccc3C=Cc3ccccc32)CC1 , report its growth. 39
